Molecular target: T1, Biotinylated human DLL3 (Delta Like Canonical Notch Ligand 3) (human, UniProt Q9NYJ7 27-492, limits assumed, biotinylated (site not stated))
T1 construct: also called Delta-like protein 3; biotinylated target ligand human DLL3
T1 sequence: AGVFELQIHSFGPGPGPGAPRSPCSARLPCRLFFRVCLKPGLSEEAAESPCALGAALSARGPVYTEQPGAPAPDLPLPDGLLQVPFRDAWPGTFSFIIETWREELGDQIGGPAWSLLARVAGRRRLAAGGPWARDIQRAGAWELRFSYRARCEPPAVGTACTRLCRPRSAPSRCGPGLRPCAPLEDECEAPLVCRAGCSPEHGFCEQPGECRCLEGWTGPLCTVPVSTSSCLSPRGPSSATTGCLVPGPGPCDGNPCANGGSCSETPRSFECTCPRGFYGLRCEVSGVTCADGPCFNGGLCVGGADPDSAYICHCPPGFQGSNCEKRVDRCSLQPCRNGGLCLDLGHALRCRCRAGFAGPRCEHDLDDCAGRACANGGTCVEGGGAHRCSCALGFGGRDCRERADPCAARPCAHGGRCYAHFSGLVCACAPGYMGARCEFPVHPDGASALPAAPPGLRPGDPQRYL
Test: SPR; letter grade, key in paragraph 614
Bridge positions count the residues as written; N and C are the ends. Square brackets hold non-standard residues; d marks the D form. * marks the point of attachment. DOTA = O=C(O)CN1CCN(CC(=O)O)CCN(CC(=O)*)CCN(CC(=O)O)CC1; 2Nal = N[C@@H](Cc1ccc2ccccc2c1)C(=O)O; 4Pal = N[C@@H](Cc1ccncc1)C(=O)O
binders and their reported Kd

binder	Kd
Ac-WTICNN[2Nal][4Pal]DCWP[dK](DOTA)-NH2 (disulfide 4-10; also: natLu in the DOTA chelator, * = [natLu]Lu-labelled peptide) [[natLu]Lu-labelled Cpd No. 367]	≤ 1 nM
Ac-WTICKN[2Nal]HDCWP[dK](DOTA)-NH2 (disulfide 4-10; SMILES CC[C@H](C)[C@H](NC(=O)[C@@H](NC(=O)[C@H](Cc1c[nH]c2ccccc12)NC(C)=O)[C@@H](C)O)C(=O)N[C@H]1CSSC[C@@H](C(=O)N[C@@H](Cc2c[nH]c3ccccc23)C(=O)N2CCC[C@H]2C(=O)N[C@H](CCCCNC(=O)CN2CCN(CC(=O)O)CCN(CC(=O)O)CCN(CC(=O)O)CC2)C(N)=O)NC(=O)[C@H](CC(=O)O)NC(=O)[C@H](Cc2c[nH]cn2)NC(=O)[C@H](Cc2ccc3ccccc3c2)NC(=O)[C@H](CC(N)=O)NC(=O)[C@H](CCCCN)NC1=O) [Cpd No. 451]	≤ 1 nM

Here is another binder to look at.
Lab note: measured Kd of Ac-WTICNN[2Nal]HDCWP[dK]-NH2 (disulfide 4-10; not fully specified (residue 13); printed as Ac-W-T-I-C(3)-N-N-(2Nal)-H-D-C(3)-W-P-{D-Lys[PEG8-D-Lys(DOTA)-PEG12-COCH2Ph-4Br]}-NH2, disulfide C(3)-C(3)) [Cpd No. 252] was ≤ 1 nM
